- procedureSummary: NCI Yeast Anticancer Drug Screen. Data for the mec2-1 strain (AID 157)
- conditionContext: S. cerevisiae mec2-1 strain, at 50.0 µM (retest, dose inferred, filed as 5.0), active compounds read high
This is part of a sample that, as a whole, favours compounds with a hit. Of some 79,000 tested, about 15% had one in any assay.
So I've got a bunch of compounds here, and I need their growth inhibition values.
Dear colleague, please return just the value in %, with no unit written.

### Prompt Need growth inhibition of CC1=C(C(=O)Nc2ccccc2C)C(c2ccc(Cl)c(Cl)c2)C(C(=O)Nc2ccccc2C)=C(C)N1 , thanks.
### Response 2

### Prompt Same read-out for CC[N+]1=C(/C=C\c2cc(C)c3cccnc3c2O)C(C)(C)c2ccccc21 ?
### Response 98

### Prompt Same read-out for COc1ccc(C(SCC(N)C(=O)O)(c2ccc(OC)cc2)c2ccc(OC)cc2)cc1 (configuration not stated) ?
### Response 99

### Prompt Same read-out for CC(C)C(C)OC(=O)Nc1cccc(O)c1 (configuration not stated) ?
### Response -53

### Prompt Same read-out for CC(C(O)c1ccccc1)[N+](=O)[O-] (configuration not stated) ?
### Response 41

### Prompt Same read-out for C/C=C(\C)C(=O)OC1C(C)C2(O)C(C=C(CO)CC3(O)C(=O)C(C)=CC32)C2C(C)(C)C12OC(=O)CCCCCCCCC (configuration not stated) ?
### Response 90

### Prompt Same read-out for C=C1C(=O)O[C@H]2[C@H](OC(C)=O)[C@@H](C)CCC/C(C)=C/CC[C@@]3(C)O[C@@H]3C[C@@H]12 ?
### Response 99

### Prompt Same read-out for CCCCn1cnc2c(SCc3ccc(F)cc3)nc(N)nc21 ?
### Response 59

### Prompt Same read-out for CCCOc1ccc(-c2nc(-c3ccc(N=Cc4ccc(N(CCOS(C)(=O)=O)CCOS(C)(=O)=O)cc4C)cc3)cs2)cc1 ?
### Response 83

### Prompt Same read-out for O=S(=O)(Nc1ccc2ccccc2c1)c1ccccc1 ?
### Response 99

### Prompt Same read-out for O=S(=O)(Nc1ccnn1-c1ccccc1)c1ccc(N=Cc2c3ccccc3nc3cc(Cl)ccc23)cc1 ?
### Response 12

### Prompt Same read-out for N#CC(C#N)C(C#N)c1ccc(Cl)c(Cl)c1 (configuration not stated) ?
### Response 100

### Prompt Same read-out for O=C(CC1(O)C(=O)Nc2c(Cl)cc(Cl)cc21)c1ccc(Br)cc1 (configuration not stated) ?
### Response -9

### Prompt Same read-out for CSc1ccc2c(c1)S[S@@](=O)N2 ?
### Response 61

### Prompt Same read-out for CCOC(=O)C[n+]1c(C)cc(-c2ccccc2)cc1C ?
### Response -15

### Prompt Same read-out for O=C(NNc1nc(-c2ccccc2)cs1)Nc1ccccc1 ?
### Response 44

### Prompt Same read-out for Cc1ccc2c(c1)CC1(C2)Cc2ccc(C)cc2C1=O (configuration not stated) ?
### Response 85

### Prompt Same read-out for CC/C(=N\NS(=O)(=O)c1ccc(C)cc1)c1cccc(OC)c1 ?
### Response 37

### Prompt Same read-out for CNc1ccc2c(c1)c1ccccc1n2C ?
### Response -67

### Prompt Same read-out for NNc1cc([N+](=O)[O-])ccc1Cl ?
### Response 68

### Prompt Same read-out for CC(/C=C/c1cccs1)=N\C(=S)NC(N)=S ?
### Response 32

### Prompt Same read-out for CCOC(=O)C(Br)C(Br)c1cccc([N+](=O)[O-])c1 (configuration not stated) ?
### Response 100
